Measured IC50 accompanies every entry in the list below.
Target: TAK1-TAB1 fusion protein (Homo sapiens)
Construct: purchased Carna
Sequence (O43318 with tags, fused parts or gaps limits assumed): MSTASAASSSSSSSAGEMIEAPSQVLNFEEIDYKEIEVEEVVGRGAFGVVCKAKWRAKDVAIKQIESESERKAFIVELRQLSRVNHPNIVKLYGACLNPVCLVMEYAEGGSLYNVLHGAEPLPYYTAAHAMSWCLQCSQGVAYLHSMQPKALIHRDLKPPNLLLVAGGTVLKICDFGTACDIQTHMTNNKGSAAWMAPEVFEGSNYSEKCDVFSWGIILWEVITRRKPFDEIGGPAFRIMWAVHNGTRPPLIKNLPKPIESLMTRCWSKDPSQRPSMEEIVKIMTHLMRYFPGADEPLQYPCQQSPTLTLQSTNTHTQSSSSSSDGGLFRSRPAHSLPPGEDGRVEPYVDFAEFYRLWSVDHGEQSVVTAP
Assay: TAK1 biochemical assay (AlphaScreen, GST-MAP2K7 substrate)
Conditions: TAK1-TAB1 fusion protein, GST-MAP2K7 substrate; read-out: mean TAK1 IC50 (Col. A)
Structures can show the parent of a compound that is named as a salt.
Measurement label: IC50

molecule=CC(=O)N1CCC(n2cc(-c3cnc(N)c4oc(-c5cccc6ccccc56)cc34)cn2)CC1 measurement_label=IC50 recorded_value="100 to 1000 nM"
molecule="CC(=O)N1CCC(n2cc(-c3cnc(N)c4oc(-c5csc6cncc(F)c56)cc34)cn2)CC1 [Example 254, trifluoroacetic Acid Salt]" measurement_label=IC50 recorded_value="< 100 nM"
molecule=Nc1ncc(-c2cnn([C@H]3CC[C@H](O)CC3)c2)c2c(Cl)c(-c3csc4cnccc34)oc12 measurement_label=IC50 recorded_value="100 to 1000 nM"
molecule="Nc1ncc(-c2cnn(C3CCNCC3)c2)c2c(Cl)c(-c3ccc4[nH]ncc4c3)oc12 [Example 399, hydrochloride]" measurement_label=IC50 recorded_value="1000 to 10000 nM"
molecule=CC(=O)N1CCC(n2cc(-c3cnc(N)c4oc(-c5cccc(CO)c5)cc34)cn2)CC1 measurement_label=IC50 recorded_value="100 to 1000 nM"
molecule="Nc1ncc(-c2cnn(C3CCNCC3)c2)c2c(Cl)c(-c3ccccc3)oc12 [Example 12, hydrochloride]" measurement_label=IC50 recorded_value="100 to 1000 nM"
molecule=CC(=O)N1CCC(n2cc(-c3cnc(N)c4oc(-c5ccc(N)c(C)c5)cc34)cn2)CC1 measurement_label=IC50 recorded_value="1000 to 10000 nM"
molecule=Nc1ncc(-c2cnn(C3CCNCC3)c2)c2cc(-c3cc(F)cc(C(F)(F)F)c3)oc12 measurement_label=IC50 recorded_value="1000 to 10000 nM"
molecule="Nc1ncc(-c2ccoc2)c2cc(-c3csc4cnccc34)oc12 [Example 392, trifluoroacetate]" measurement_label=IC50 recorded_value="100 to 1000 nM"
molecule=CC(=O)N1CCC(n2cc(-c3cnc(N)c4oc(-c5ccc(S(C)(=O)=O)cc5)cc34)cn2)CC1 measurement_label=IC50 recorded_value="> 10000 nM"
molecule=Nc1ncc(-c2cnn(C3CCNCC3)c2)c2cc(C3CCNCC3)oc12 measurement_label=IC50 recorded_value="> 10000 nM"
molecule=CC(=O)N1CCC(n2cc(-c3cnc(N)c4oc(-c5cn[nH]c5)cc34)cn2)CC1 measurement_label=IC50 recorded_value="100 to 1000 nM"
molecule="Nc1ncc(-c2cnn([C@@H]3CCC[C@@H](O)C3)c2)c2cc(-c3cccc4cnsc34)oc12 (relative stereo)" measurement_label=IC50 recorded_value="< 100 nM"
molecule="CNc1ncc(-c2cnn([C@H]3CC[C@H](O)CC3)c2)c2cc(-c3cccc4nnsc34)oc12 [Example 284, formate salt]" measurement_label=IC50 recorded_value="< 100 nM"
molecule=Cn1cc(-c2cnc(N)c3oc(-c4ccccc4)cc23)cn1 measurement_label=IC50 recorded_value="> 10000 nM"
molecule="Nc1ncc(-c2cnn([C@H]3CC[C@H](O)CC3)c2)c2cc(-c3cccc4ncsc34)oc12 [Example 231, diformate salt]" measurement_label=IC50 recorded_value="< 100 nM"
molecule=CC(=O)N1CCC(n2cc(-c3cnc(N)c4oc(-c5scc6c5OCCO6)cc34)cn2)CC1 measurement_label=IC50 recorded_value="100 to 1000 nM"
molecule=CNc1ncc(-c2cnn([C@H]3CC[C@H](O)CC3)c2)c2cc(-c3cccc4cnsc34)oc12 measurement_label=IC50 recorded_value="100 to 1000 nM"
molecule=Nc1ncc(-c2cnn(C3CCNCC3)c2)c2c(Cl)c(-c3cccc4cnccc34)oc12 measurement_label=IC50 recorded_value="1000 to 10000 nM"
molecule="Nc1ncc(-c2cn[nH]c2)c2cc(-c3c[nH]c4cnccc34)oc12 [Example 87, trifluoroacetic acid salt]" measurement_label=IC50 recorded_value="< 100 nM"
molecule="COc1cc2c(-c3cc4c(-c5cnn([C@H]6CC[C@H](O)CC6)c5)cnc(N)c4o3)csc2cn1 [Example 250, bis(trifluoroacetate)]" measurement_label=IC50 recorded_value="1000 to 10000 nM"
molecule=Nc1ncc(-c2cnn([C@H]3CC[C@H](O)CC3)c2)c2cc(-c3cccc4cnncc34)oc12 measurement_label=IC50 recorded_value="< 100 nM"
molecule=Nc1ncc(-c2cnn([C@@H]3C[C@H]4CC[C@@H](C3)N4C=O)c2)c2cc(-c3csc4cnccc34)oc12 measurement_label=IC50 recorded_value="< 100 nM"
molecule=CC(=O)N1CCC(n2cc(-c3cnc(N)c4oc(-c5cccc(C(=O)N6CCOCC6)c5)cc34)cn2)CC1 measurement_label=IC50 recorded_value="1000 to 10000 nM"
molecule=Cc1ncc(-c2cnc(N)c3oc(-c4csc5cnccc45)cc23)n1C measurement_label=IC50 recorded_value="1000 to 10000 nM"
molecule=COC(=O)c1ccc(-c2cnc(N)c3oc(-c4csc5cnccc45)cc23)s1 measurement_label=IC50 recorded_value="> 10000 nM"
molecule="CC(=O)N1CCC(n2cc(-c3cnc(N)c4oc(-c5cccc6nnsc56)cc34)cn2)CC1 [Example 224, diformate salt]" measurement_label=IC50 recorded_value="< 100 nM"
molecule="CC(C)(O)C#Cc1sc2cnccc2c1-c1cc2c(-c3cnn([C@H]4CC[C@H](O)CC4)c3)cnc(N)c2o1 [Example 271, trifluoroacetate]" measurement_label=IC50 recorded_value="100 to 1000 nM"
molecule=CCOc1cccc(-c2cc3c(-c4cnn(C5CCN(C(C)=O)CC5)c4)cnc(N)c3o2)c1 measurement_label=IC50 recorded_value="1000 to 10000 nM"
molecule=CC(C)n1cc(-c2cnc(N)c3oc(-c4c[nH]c5cnccc45)cc23)cn1 measurement_label=IC50 recorded_value="< 100 nM"
